Every entry's value here was drawn from patent US20250161238A1.

- targetSystem: proteasome (Homo sapiens, UniProt P28072+P28074+Q99436)
- Sequence (P28074 60-263): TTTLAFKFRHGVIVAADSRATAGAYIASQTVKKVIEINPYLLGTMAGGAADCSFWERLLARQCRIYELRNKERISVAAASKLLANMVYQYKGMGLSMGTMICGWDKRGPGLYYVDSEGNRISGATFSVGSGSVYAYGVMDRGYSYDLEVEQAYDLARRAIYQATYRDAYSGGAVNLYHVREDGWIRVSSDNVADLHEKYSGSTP
- Sequence (Q99436 44-277): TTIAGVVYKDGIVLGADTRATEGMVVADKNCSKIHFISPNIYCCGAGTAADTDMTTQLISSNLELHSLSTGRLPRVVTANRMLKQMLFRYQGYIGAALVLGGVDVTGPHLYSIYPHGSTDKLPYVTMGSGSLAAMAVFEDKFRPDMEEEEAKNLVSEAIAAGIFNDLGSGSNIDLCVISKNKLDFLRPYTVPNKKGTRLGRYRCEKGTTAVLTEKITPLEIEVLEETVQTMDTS
- Sequence (P28072 whole entry): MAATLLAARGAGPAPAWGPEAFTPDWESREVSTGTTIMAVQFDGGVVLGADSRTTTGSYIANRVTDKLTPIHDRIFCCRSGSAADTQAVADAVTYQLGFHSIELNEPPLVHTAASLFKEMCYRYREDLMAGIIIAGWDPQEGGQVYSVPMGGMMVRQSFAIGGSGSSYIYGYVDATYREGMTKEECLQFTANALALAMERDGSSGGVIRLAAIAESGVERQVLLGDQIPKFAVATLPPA
- experimentalProtocol: In-Cell Fluorogenic Proteasome Assay, HepG2
- Assay type: cell-based
- Design: endogenous in cells; host or cells: HepG2 (A9), T98G (A10), digitonin/Tween-permeabilised whole cells
- protocolConditions: whole HepG2 cell
property: trypsin, chemotrypsin and caspase-like proteasome activities

>  <compound>
CNC1(c2ccccc2Cl)CCCCC1=O (stereo not shown)

>  <targetSystem>
proteasome (Homo sapiens, UniProt P28072+P28074+Q99436)

>  <obsValue>
increased

$$$$
>  <compound>
CC12CC3CC(C)(C1)CC(N)(C3)C2 [memantine, 3,5-dimethyladamantan-1-amine]

>  <targetSystem>
proteasome (Homo sapiens, UniProt P28072+P28074+Q99436)

>  <obsValue>
increased

$$$$
>  <compound>
C[C@]12N[C@H](Cc3ccccc31)c1ccccc12

>  <targetSystem>
proteasome (Homo sapiens, UniProt P28072+P28074+Q99436)

>  <obsValue>
increased

$$$$
